Here the recorded Ki is given for each entry.
# ASSAY SYSTEM: dopamine D3 receptor (Rattus norvegicus)
# Construct: expressed in transfected cells; host or cells: CHO-K1
# Sequence (P19020 whole entry): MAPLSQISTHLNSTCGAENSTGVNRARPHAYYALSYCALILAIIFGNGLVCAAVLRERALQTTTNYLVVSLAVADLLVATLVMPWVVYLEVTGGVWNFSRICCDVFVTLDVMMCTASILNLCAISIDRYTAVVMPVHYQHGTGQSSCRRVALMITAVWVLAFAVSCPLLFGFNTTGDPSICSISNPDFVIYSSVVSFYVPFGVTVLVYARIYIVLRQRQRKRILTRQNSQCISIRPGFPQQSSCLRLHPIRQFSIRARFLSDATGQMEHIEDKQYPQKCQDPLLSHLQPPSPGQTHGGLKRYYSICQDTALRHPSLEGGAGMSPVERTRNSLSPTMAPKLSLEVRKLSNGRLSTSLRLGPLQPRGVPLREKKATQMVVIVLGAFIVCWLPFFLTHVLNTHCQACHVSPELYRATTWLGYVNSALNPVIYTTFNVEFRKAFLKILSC
# TEST SUMMARY: Competition binding at cloned rat dopamine D3 receptor (D3-DOP-CLONE) with [3H]-spiperone
# RUN CONDITIONS: Ki (Receptor binding, IC50 values), cloned rat receptor in CHO-K1 cells, [3H]-spiperone (107 Ci/mmol, 0.5 nM), eleven dilutions
PROPERTY: Ki (nM)

* CCCN(CCC)CCc1ccc(NS(=O)(=O)c2ccc(Cl)cc2)cc1 | 3.7
* CCCNCCc1ccc(NS(=O)(=O)c2ccc(Br)cc2)cc1 | 14
* CCCNCCc1ccc(NS(=O)(=O)c2ccc(Cl)cc2)cc1 | 18
* CCCNCCc1cccc(NS(=O)(=O)c2ccccc2F)c1 | 54

###

Here the recorded pKi is given for each entry.
# ASSAY SYSTEM: dopamine D2 receptor (Rattus norvegicus, UniProt P61169)
# Sequence (P61169 whole entry): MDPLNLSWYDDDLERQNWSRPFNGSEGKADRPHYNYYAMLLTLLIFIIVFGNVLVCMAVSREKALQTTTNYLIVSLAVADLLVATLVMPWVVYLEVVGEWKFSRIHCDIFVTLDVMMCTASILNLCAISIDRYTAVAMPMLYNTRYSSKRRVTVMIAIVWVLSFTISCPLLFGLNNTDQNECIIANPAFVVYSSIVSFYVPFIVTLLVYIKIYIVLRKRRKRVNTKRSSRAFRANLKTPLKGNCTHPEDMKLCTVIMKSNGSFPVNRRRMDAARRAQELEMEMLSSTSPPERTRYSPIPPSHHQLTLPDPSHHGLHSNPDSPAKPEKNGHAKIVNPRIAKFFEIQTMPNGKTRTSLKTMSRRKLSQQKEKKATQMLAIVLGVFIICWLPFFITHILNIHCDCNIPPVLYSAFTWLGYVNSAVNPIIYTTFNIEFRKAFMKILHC
# TEST SUMMARY: Competition binding at cloned rat dopamine D2 receptor (D2-DOP-CLONE) with [3H]-86170
# RUN CONDITIONS: cloned rat receptor in CHO-K1 cells, [3H]-86170 (62 Ci/mmol, 2 nM), eleven dilutions, read-out: Ki (Receptor binding, IC50 values)
pKi: −log10 of the molar value.
PROPERTY: pKi

- CCCNCCc1ccc(NS(=O)(=O)c2ccc(OC(F)(F)F)cc2)cc1: 5.62
- CCCNCCc1ccc(NS(=O)(=O)c2ccc(Cl)cc2)cc1: 6.17
- CCCN(CCC)CCc1ccc(NS(=O)(=O)c2ccc(NC(C)=O)cc2)cc1: 5.97
- CCCNCCc1ccc(NS(=O)(=O)c2ccc(Cl)cc2Cl)cc1: 6.12
- CCCNCCc1ccc(NS(=O)(=O)c2ccc(F)cc2Cl)cc1: 5.66
- CCCNCCc1cccc(NS(=O)(=O)c2ccccc2F)c1: 6.19
- CCCNCCc1ccc(NS(=O)(=O)c2ccc(C(F)(F)F)cc2)cc1: 5.82
- CCCNCCc1ccc(NS(=O)(=O)c2ccc(Br)cc2)cc1: 6.21
- CCCNCCc1cccc(NS(=O)(=O)c2cccc(Cl)c2)c1: 5.97
- CCCN(CCC)CCc1ccc(NS(=O)(=O)c2ccc(Cl)cc2)cc1: 6.20

###

# ASSAY SYSTEM: dopamine D3 receptor (Rattus norvegicus)
# Construct: expressed in transfected cells; host or cells: CHO-K1
# TEST SUMMARY: Competition binding at cloned rat dopamine D3 receptor (D3-DOP-CLONE) with [3H]-spiperone
# RUN CONDITIONS: cloned rat receptor in CHO-K1 cells, [3H]-spiperone (107 Ci/mmol, 0.5 nM), eleven dilutions, read-out: Ki (Receptor binding, IC50 values)
# Experimental: Competition binding experiments employed eleven dilutions of test compounds of Formula I competing with [^3 H]-5-(dipropylamino)-5,6-dihydro-4H-imidazo(4,5,1-ij)quinolin-2(1H)-one (R-enantiomer) ("86170") (62 Ci/mmol, 2nM) and [^3 H]-spiperone ("SPI") (107 Ci/mmol, 0.5 nM) for D2 and D3 binding sites, respectively. (Lahti, R. A., Eur. J. Pharmacol., 202, 289 (1991)) In each experiment, cloned rat receptors expressed in CHO-K1 cells were used. […]
PROPERTY: Ki (nM)

- CCCNCCc1ccc(NS(=O)(=O)c2ccc(C(F)(F)F)cc2)cc1: 33
- CCCNCCc1ccc(NS(=O)(=O)c2ccc(OC(F)(F)F)cc2)cc1: 28
- CCCNCCc1ccc(NS(=O)(=O)c2ccc(F)cc2Cl)cc1: 165
- CCCN(CCC)CCc1ccc(NS(=O)(=O)c2ccc(NC(C)=O)cc2)cc1: 34
- CCCNCCc1cccc(NS(=O)(=O)c2cccc(Cl)c2)c1: 111
